biological target: AChE in neural stem cells (Homo sapiens, UniProt P22303); assay: cell-based
Sequence (P22303 32-614): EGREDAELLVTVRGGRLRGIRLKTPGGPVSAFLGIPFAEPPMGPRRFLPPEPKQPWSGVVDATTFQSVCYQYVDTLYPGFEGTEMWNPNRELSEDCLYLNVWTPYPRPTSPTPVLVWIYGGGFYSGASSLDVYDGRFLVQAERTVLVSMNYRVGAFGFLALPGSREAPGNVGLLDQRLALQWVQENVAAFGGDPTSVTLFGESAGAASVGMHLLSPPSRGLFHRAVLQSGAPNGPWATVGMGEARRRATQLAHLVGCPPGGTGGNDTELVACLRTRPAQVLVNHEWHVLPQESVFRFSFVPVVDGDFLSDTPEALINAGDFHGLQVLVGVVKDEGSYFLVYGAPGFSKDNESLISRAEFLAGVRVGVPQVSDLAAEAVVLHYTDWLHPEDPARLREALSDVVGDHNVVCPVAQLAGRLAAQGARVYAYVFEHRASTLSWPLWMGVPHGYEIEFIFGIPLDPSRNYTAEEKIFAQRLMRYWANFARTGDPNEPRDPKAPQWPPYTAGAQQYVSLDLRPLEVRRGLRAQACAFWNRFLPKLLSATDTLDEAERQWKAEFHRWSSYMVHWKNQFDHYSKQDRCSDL
The entries below come with measured IC50 values attached.
measure_name: IC50 (µM)

molecule	units_text	value_measured
CCOP(=S)(OCC)Oc1cnc2ccccc2n1	µM	7.48
Cc1nc2n(c(=O)c1CCN1CCC(C(=O)c3ccc(F)cc3)CC1)CCS2 [Setoperone, reference compound]	µM	8.35
CN1C[C@H](CNC(=O)OCc2ccccc2)C[C@@H]2c3cccc4c3c(cn4C)C[C@H]21 [Metergoline, reference compound]	µM	13.2
CCCCN(CCCC)SN(C)C(=O)Oc1cccc2c1OC(C)(C)C2	µM	10.9
